Test system: UACC-62 melanoma
Test: NCI tumour cell line growth inhibition, 48 h
measure.name: TGI (µM)

compound=C=CCN1C(=O)/C(=C/c2ccc(Cl)cc2)N=C1SC/C=C/C censoring_sign=> value_observed=100
compound="CCC[CH2][Sn]1([CH2]CCC)[O]C(=O)C(C(C)C)N=Cc2ccccc2[O]1 (stereo not given)" censoring_sign== value_observed=0.693
compound="CC(=O)NC1C(OCc2ccccc2)OC(CO)C(O)C1OC(C)C(=O)NC(C(=O)NC(CCC(=O)NCCCC(=O)Nc1ccc2c(c1)CN1C(=O)c3ccccc3C1=N2)C(N)=O)C(C)C (stereo not given)" censoring_sign=> value_observed=100
compound=CN(C)CCCn1c2c(c3ccccc3c1=O)C(=O)c1ccccc1-2 censoring_sign== value_observed=1.96
compound=Cc1ccc(C(=NN=C(N)N)c2ccc(C)cc2)cc1 censoring_sign== value_observed=6.04
compound=CC(=O)O[C@H]1C(=O)[C@@]2(C)[C@H]([C@H](OC(=O)c3ccccc3)[C@]3(O)C[C@H](OC(=O)[C@H](O)[C@@H](NC(=O)c4ccc(N)cc4)c4ccccc4)C(C)=C1C3(C)C)[C@]1(OC(C)=O)CO[C@@H]1C[C@@H]2O censoring_sign=> value_observed=50
compound="CCCCCCCCCCCCCCCCP(=O)(O)OCC(N)C(=O)O (stereo not given)" censoring_sign=> value_observed=100
compound="CC12CCCC(C(=O)O)(C1)[C@H](C(C)(C)C(=O)O)CC2 (stereo not given in full)" censoring_sign=> value_observed=100
compound="c1ccc(C2=NNC3c4ccccc4-c4ccccc4N3C2)cc1 (stereo not given)" censoring_sign== value_observed=35.2
compound="COc1c2c(cc3nc4ccccc4nc13)CCC(C(C)(C)O)C2 (stereo not given)" censoring_sign=> value_observed=100

----------
System: A549 NSCLC
Assay: NCI tumour cell line growth inhibition, 48 h
measure.name: TGI

compound=CCOC(=O)c1cc(/C(=N\O)c2cc(OC)c(OC)c(OC)c2)n2cc(C)cc(C)c12 system_under_test="A549 NSCLC" value_observed="> 100 µM"
compound=Cc1nc(N)c(N2CCN(S(N)(=O)=O)CC2)c(=O)[nH]1 system_under_test="A549 NSCLC" value_observed="> 100 µM"
compound=CN(C)CCOc1ccc(/C(=C(/CCCCCCCCCC[P+](c2ccccc2)(c2ccccc2)c2ccccc2)c2ccccc2)c2ccccc2)cc1 system_under_test="A549 NSCLC" value_observed="1.66 µM"
compound=Cc1ccc(N(C(=O)CC(=O)NN)C(=O)c2ccccc2Cl)cc1 system_under_test="A549 NSCLC" value_observed="> 100 µM"
compound="N#Cc1nc(C2OC(COC(=O)c3ccccc3)C(OC(=O)c3ccccc3)C2OC(=O)c2ccccc2)oc1N (stereo not given)" system_under_test="A549 NSCLC" value_observed="> 100 µM"
compound="CC(=O)NC1C(OCc2ccccc2)OC(CO)C(O)C1OC(C)C(=O)NC(C(=O)NC(CCC(=O)NCCCC(=O)Nc1ccc2c(c1)CN1C(=O)c3ccccc3C1=N2)C(N)=O)C(C)C (stereo not given)" system_under_test="A549 NSCLC" value_observed="> 100 µM"
compound="O=C1c2c(Br)sc(Br)c2C(NC(=O)C(F)(F)F)C1O (stereo not given)" system_under_test="A549 NSCLC" value_observed="58.5 µM"
compound="CC(=O)C(C(=O)c1ccc(C)cc1)[C@@H]1OC(C)(C)O[C@@H]1[C@H]1COC(C)(C)O1 (stereo not given in full)" system_under_test="A549 NSCLC" value_observed="> 91.6 µM"
compound=O=C1NC(=O)c2ccc([N+](=O)[O-])c3cccc1c23 system_under_test="A549 NSCLC" value_observed="43.9 µM"
compound=COC(=O)c1ccccc1/C=C1\Cc2c(C)c3c(c(C)c2C1=O)CCC3 system_under_test="A549 NSCLC" value_observed="> 100 µM"
compound=Cc1ccc(-c2c(C#N)c(-c3ccccc3)n(NS(=O)(=O)c3ccc(C)cc3)c(=O)c2C#N)cc1 system_under_test="A549 NSCLC" value_observed="> 100 µM"
compound=NC(N)=NCCCn1c2c(c3ccccc3c1=O)C(=O)c1ccccc1-2 system_under_test="A549 NSCLC" value_observed="> 100 µM"
compound=CC(=O)OC1=NN=C2COC(c3ccccc3OC(C)=O)=NN2C1 system_under_test="A549 NSCLC" value_observed="> 50 µM"
compound=CC1=C2C(=O)O[C@@H](c3ccoc3)[C@]2(C)CCC1 system_under_test="A549 NSCLC" value_observed="> 100 µM"
compound="O=C1CC(Br)c2c(Br)sc(Br)c21 (stereo not given)" system_under_test="A549 NSCLC" value_observed="> 100 µM"

----------
Test system: MOLT-4 leukemia
Experiment: NCI tumour cell line growth inhibition, 48 h
TGI reference
measure.name: TGI (µM)

molecule=Cc1nc2ccccc2c(=O)n1NC(=O)c1ccccn1 unit_abbreviation=µM censoring_sign=> value_observed=100
molecule="COc1ccc(C(C)c2cc3c(cc2OC)OCO3)cc1 (stereo not given)" unit_abbreviation=µM censoring_sign=> value_observed=60.6
molecule=CC(C)N(C(=O)C12CC3CC(CC(C3)C1)C2)C(C)C unit_abbreviation=µM censoring_sign=> value_observed=50
molecule=O=C1c2ccccc2-c2c1c1ccccc1c(=O)n2Cc1ccccc1 unit_abbreviation=µM censoring_sign=> value_observed=100
molecule=C=CC(C)(C)n1cc(C2=C3OC(=O)C(c4cn(C(C)(C)C=C)c5ccccc45)=C3OC2=O)c2ccccc21 unit_abbreviation=µM censoring_sign=> value_observed=100
molecule=CC(=O)c1c(-c2ccc(Cl)cc2)c(-c2ccc(Cl)cc2)n[nH]c1=O unit_abbreviation=µM censoring_sign=> value_observed=100
molecule="Cc1c(N=Nc2ccccc2)c(-c2ccccc2)n(C2OC(CO)C(O)C(O)C2O)c(=S)c1C#N (stereo not given)" unit_abbreviation=µM censoring_sign== value_observed=24.5
molecule=CCCCNC(=S)Nc1nc(C(=O)NNC(=S)NCC)cs1 unit_abbreviation=µM censoring_sign=> value_observed=100
molecule="Cc1cn(C2OC(CO[Si](C)(C)C(C)(C)C)/C(=C\\C#N)C2O[Si](C)(C)C(C)(C)C)c(=O)[nH]c1=O (stereo not given)" unit_abbreviation=µM censoring_sign=> value_observed=100
molecule=CCN(CC)C(=O)c1cc(OC(C)C)ccc1-c1c(C)cc(OC(C)C)c(OC)c1OC unit_abbreviation=µM censoring_sign=> value_observed=100
molecule=Nc1ncc(-c2cnn(CCO)c2)c2scc(-c3ccc(NC(=O)Nc4cccc(F)c4)cc3)c12 unit_abbreviation=µM censoring_sign== value_observed=2.34
molecule=Cc1cccc(N/C(=C(/C(Cl)=C(Cl)Cl)[N+](=O)[O-])n2nnc3ccccc32)c1 unit_abbreviation=µM censoring_sign=> value_observed=100
molecule=CN(C)CCCn1c2c(c3ccccc3c1=O)C(=O)c1ccccc1-2 unit_abbreviation=µM censoring_sign== value_observed=0.746
molecule=CN(C)CC/C(=N\Nc1c(Cl)cccc1Cl)c1ccccc1 unit_abbreviation=µM censoring_sign== value_observed=71.7
molecule=COc1cc2c(cc1C)NC(=O)/C2=C/c1cccnc1 unit_abbreviation=µM censoring_sign== value_observed=24.1
molecule="CC(=O)OC1Oc2ccccc2-c2oc(=O)c(-c3cc4ccc(N(C)C)cc4oc3=O)cc21 (stereo not given)" unit_abbreviation=µM censoring_sign== value_observed=18.1
molecule="O=C(O)CP(=S)(S)c1ccccc1 (stereo not given)" unit_abbreviation=µM censoring_sign=> value_observed=100
molecule=Cc1ccc2nc3c(C(=O)NCCN(C)C)cccc3nc2c1 unit_abbreviation=µM censoring_sign== value_observed=6.29
molecule=O=[N+]([O-])/C(C(Cl)=C(Cl)Cl)=C1\Nc2ccc([N+](=O)[O-])cc2N1 unit_abbreviation=µM censoring_sign=> value_observed=100
molecule=C=CCN1C(=O)/C(=C/c2ccc(Cl)cc2)N=C1SC/C=C/C unit_abbreviation=µM censoring_sign== value_observed=43.8
molecule=O=c1[nH]c(=O)n(C/C=C/CO)nc1Br unit_abbreviation=µM censoring_sign=> value_observed=100
molecule=Cc1c2c(cc3c1C(=O)C(=O)C([C@@H](C)CO)=C3O)C(C)(C)CCC2 unit_abbreviation=µM censoring_sign== value_observed=93.2
molecule="NCC(Cl)C(O)c1cnc(N)[nH]1 (stereo not given)" unit_abbreviation=µM censoring_sign== value_observed=2.65
molecule="CN1CCCC2C(c3ccccc3)C(C3=NCCCC3)C(c3ccccc3)CC21 (stereo not given)" unit_abbreviation=µM censoring_sign=> value_observed=100
molecule="CC(=O)NC1C(OCc2ccccc2)OC(CO)C(O)C1OC(C)C(=O)NC(C(=O)NC(CCC(=O)NCCCC(=O)Nc1ccc2c(c1)CN1C(=O)c3ccccc3C1=N2)C(N)=O)C(C)C (stereo not given)" unit_abbreviation=µM censoring_sign=> value_observed=100

----------
Tested on: MDA-MB-231 breast
Assay: NCI tumour cell line growth inhibition, 48 h
GI50 reference
measure.name: GI50

molecule=COc1cc[nH]c1/C=C1\C(=O)Nc2ccccc21 measure_name=GI50 value_observed="4.87 µM"
molecule=COc1cc(OC)c(/C=C/C(=O)c2c(OC)cccc2OC)c(OC)c1 measure_name=GI50 value_observed="1.07 µM"
molecule=Cc1ccc(C(=NN=C(N)N)c2ccc(C)cc2)cc1 measure_name=GI50 value_observed="0.926 µM"
molecule=CCC#CC[C@H]1C/C=C2/C(=O)C=C[C@@H]2C/C=C\CCCC(=O)O1 measure_name=GI50 value_observed="1.85 µM"
molecule=O=C(CCl)Nc1ccc(Cl)cc1 measure_name=GI50 value_observed="5.24 µM"
molecule=Clc1nc(Cl)c2ncn(Cc3cccc(COc4cccc(OCc5cccc(Cn6cnc7c(Cl)nc(Cl)nc76)c5)c4)c3)c2n1 measure_name=GI50 value_observed="27.2 µM"
molecule="CCN(CC)CCCC(C)Nc1c(C)cnc2cc(Cl)c(C)cc12 (centres undefined)" measure_name=GI50 value_observed="2.71 µM"
molecule=O=C(N/N=C/c1cccc(O)c1O)c1ccccc1 measure_name=GI50 value_observed="0.495 µM"
molecule=CCCCN=C(N)c1ccc(OCCSCCOc2ccc(C(N)=NCCCC)cc2)cc1 measure_name=GI50 value_observed="16.9 µM"
